# Test system: NCI/ADR-RES ovarian
# METHOD_DESCRIPTION: NCI tumour cell line growth inhibition, 48 h; in the data active = GI50 below about 0.43 µM; inactive = the rest
Pick one: 1.0 = active, 0.0 = inactive

Examples from the recorded data:
{"COMPOUND": "O=C1N(Cc2ccccc2Cl)c2ccccc2C12NN=C(c1cccc(Cl)c1)S2 (stereo not given)", "TARGET_OR_SYSTEM": "NCI/ADR-RES ovarian", "CLASS": 0.0}
{"COMPOUND": "CCSC[C@@H]1C[C@](O)(c2ccc(F)cc2)[C@@H](c2ccc(F)cc2)O1", "TARGET_OR_SYSTEM": "NCI/ADR-RES ovarian", "CLASS": 0.0}
{"COMPOUND": "Cc1cccc2c3c(sc12)C(c1ccc(F)cc1)C(C#N)=C(N)O3 (stereo not given)", "TARGET_OR_SYSTEM": "NCI/ADR-RES ovarian", "CLASS": 1.0}
{"COMPOUND": "CN(CCC(=O)/C(=C\\c1ccccc1)c1ccc(Cl)cc1)Cc1ccccc1", "TARGET_OR_SYSTEM": "NCI/ADR-RES ovarian", "CLASS": 0.0}
{"COMPOUND": "O=C1c2cccnc2C(=O)c2c1c(C(=O)OCCCN1CCCCC1)c1ccccn21", "TARGET_OR_SYSTEM": "NCI/ADR-RES ovarian", "CLASS": 1.0}
{"COMPOUND": "COCCOCCOCc1n(Cc2ccc3ccccc3n2)c2ccccc2[n+]1Cc1ccc2ccccc2n1", "TARGET_OR_SYSTEM": "NCI/ADR-RES ovarian", "CLASS": 0.0}
{"COMPOUND": "COc1cc(C)c2sc3ccccc3c(=O)c2c1NCCN(C)C", "TARGET_OR_SYSTEM": "NCI/ADR-RES ovarian", "CLASS": 0.0}
{"COMPOUND": "Cc1nc2ccccc2nc1N=Nc1ccccc1", "TARGET_OR_SYSTEM": "NCI/ADR-RES ovarian", "CLASS": 0.0}
{"COMPOUND": "O=C1/C(=C/c2ccc(O)cc2)COc2ccc(O)c(O)c21", "TARGET_OR_SYSTEM": "NCI/ADR-RES ovarian", "CLASS": 0.0}

Which result was noted for this compound in the test: `COc1ccc(-c2c3c(nc4n[nH]c(-c5ccc(Cl)cc5)c24)-c2ccccc2C(=O)C3=O)cc1`
0.0

----------
# Tested on: KM12 colon
# METHOD_DESCRIPTION: NCI tumour cell line growth inhibition, 48 h
Readings of TGI for the listed molecules

Recorded TGI, per entry:
{"MOLECULE": "CCCCCCNCc1cc(C(C)(C)C)cc(CNCCCCCC)c1O", "TGI": "3.3 µM"}
{"MOLECULE": "CCOC(=O)c1c(SC(=O)c2ccc(OC)cc2)n(-c2ccccc2)c(=S)n(-c2ccccc2)c1=O", "TGI": "> 100 µM"}
{"MOLECULE": "NC(=O)NC1C(C(=O)O)N(Cc2ccccc2)C(=O)N1Cc1ccccc1 (configuration not stated)", "TGI": "> 100 µM"}
{"MOLECULE": "C[C@H](CCC1SC1(C)C)C1CCC2(C)C3=C(CC[C@]12C)[C@@]1(C)CC[C@H](O)C(C)(C)C1CC3 (some centres not stated)", "TGI": "> 100 µM"}
{"MOLECULE": "O=C1c2cccnc2C(=O)c2c1c(C(=O)OCCCN1CCCCC1)c1ccccn21", "TGI": "0.165 µM"}

What value of TGI has been recorded for this entry: `O=C(NCCCl)SCCO`
> 100 µM

# get_value(readout='TGI', item= `C=Cn1c([N+](=O)[O-])cnc1/C=C/c1ccc(C(=O)OCCN2CCOCC2)cc1` )
> 100 µM

Which TGI value is on record for CC1(C)OC2OC(C(COS(=O)(=O)C(F)(F)F)N=[N+]=[N-])C(OC(=O)c3ccccc3)C2O1 (configuration not stated) ?
> 100 µM

These measurements were taken from PubChem BioAssay (NCI).
